Tested on: Candida albicans
experiment_description: Antifungal activity against Candida albicans ATCC 76615 assessed as fluconazole MIC incubated for 72 hrs by checker board assay
Type: functional
Field: MIC. Provide a value for each of the molecules that follow.
Answers are plain numbers, in µg/mL.

O=C(/C=C/C(=O)N1CCCC12Cc1ccccc1NC2=O)Nc1cccc([N+](=O)[O-])c1 (centres undefined) : 1
O=C(/C=C/C(=O)N1CCCC12Cc1ccccc1NC2=O)Nc1ccc(Cl)c(F)c1 (centres undefined) : 1
O=C(/C=C/C(=O)N1CCCC12Cc1ccccc1NC2=O)Nc1ccc(F)cc1 (centres undefined) : 1

If you can, please state the reported MIC value of O=C(/C=C/C(=O)N1CCCC12Cc1ccccc1NC2=O)Nc1ccccc1[N+](=O)[O-] (centres undefined) .
2
